Sourced from patent US20260116991A1

- tgt: T1, murine GPC3-his protein (Sino Biological, Cat. No. 50989-M08B) (murine, UniProt Q8CFZ4 25-558)
- T1 construct: Bought protein; also called murine GPC3 protein
- measurementDescription: ELISA, coated murine GPC3-His;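 note: antigen coated on plates at 1 µg/mL, test antibody bound for 2 h at 37 °C, detected with HRP-conjugated secondary antibody and TMB substrate after acid stop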
# OD450 at 100 nM antibody per entry
Unit OD450 nm implied. Number only.

Here is how some binders turned out for OD450 at 100 nM antibody.
binder	obsValue
F1.118.4 human-murine chimeric antibody (antibody, human IgG1, kappa, V domains shown) VH: QVQLQQSGAELAKPGASVKLSCKASGYSFTSYWIHWVKQRPGQGLEWIGYINPSSGYTKYNQKFKDKATLTADKSSSTAYMQLSSLTYEDSAVYYCARFGSSSFYFDYWGQGTTLTVSS VL: DIVLTQSPASLAVSLGQRATISCRASQSVSSSSYSYMHWYQQKPGQPPKLLIKYASNLDSGVPARFSGSGSGTDFTLNIHPVEEEDTATYYCQHSWEIPAFGGGTKLEIKR	0.07
F1.62.9 human-murine chimeric antibody (antibody, human IgG1, kappa, V domains shown) VH: QVQLQQSDAELVKPGASVKISCKVSGYIFTDHTIHWMKQRPEQGLEWIGYIYPRDGSIKYNENFKGKATLTADKSSSATYMQLNSLTSEDSAVYFCARPIYYDYAYYFDYWGQGTTLTVSS VL: DVVMTQSPLSLPVSLGDQASISCRSRQSLVHSNGNTYLHWYLQKPGQSPKVLIYKVSNRFSGVPDRFSGSGSGTDFTLKISRVEAEDLGVYFCSQSTHVPYTFGGGTKLEIKR	0.28
F2.152.3 human-murine chimeric antibody (antibody, human IgG1, kappa, V domains shown) VH: EVQLQQSGPELVKPGASVKMSCKASGYTFTDYYMTWVKQSHGKSLEWIGRVNPRNGDTTYNQKFEGRATLTLDKSLSTAFMQLNSLTSEDSAVYYCINSKGHFDYWGQGTTLTVSS VL: DVLMTQTPLSLPVSLGDQASISCRSSQSIVHSNGNTYLEWFLQKPGQSPKSLIYKVSNRFSGVPDRFSGSGSGTDFTLKISRVEAEDLGVYYCFQGSHVPPTFGAGTKLELKR	2.47

(Q) Using the record for F1.111.11 human-murine chimeric antibody (antibody, human IgG1, kappa, V domains shown) VH: EVQLQQSGPELVKPGASVKISCKASGYTFTDYYMNWVKQSHGKSLEWIGDIYPNNGDTTYNQRFKGKATLTVDKSSSTAYMELRSLASEDSAVYYCACPYNNPFGYWGQGTLVTVSA VL: DVVMTQTPLSLPVSLGDQASISCRSSQSLVHSNGNTYLHWYLQKPGQSPKLLIYKVSNRFSGVPDRFSGSGSGTDFTLKISRVEAEDLGVYFCSQSTHVPWTFGGGTKLEIKR , report its OD450 at 100 nM antibody.
(A) 3.01

(Q) Quick one: F3.54.12 human-murine chimeric antibody (antibody, human IgG1, kappa, V domains shown) VH: QVQLQQSGAELVRPGASVKLSCKASGYTFTDYEMHWVKQTPVHGLEWIGAIDPETGNTAYIQKFKGKATLTTDKSSSTAYMELRSLTSEDSAVYYCTRFYSYSHWGQGTTLTVSS VL: DVVMTQTPLSLPVSLGDQASISCRSSQSLVHSNGNTYLHWYLQKPGQSPKLLIYKVSNRFSGVPDRFSGSSSGTDFTLKISRVEAEDLGVYFCSQNTHVPPTFGGGTKLEIKR
(A) 0.34
